molecular target: Human C3 (human, UniProt P01024 23-1663); experiment: cell-based or functional assay
Sequence (P01024 23-1663 limits assumed): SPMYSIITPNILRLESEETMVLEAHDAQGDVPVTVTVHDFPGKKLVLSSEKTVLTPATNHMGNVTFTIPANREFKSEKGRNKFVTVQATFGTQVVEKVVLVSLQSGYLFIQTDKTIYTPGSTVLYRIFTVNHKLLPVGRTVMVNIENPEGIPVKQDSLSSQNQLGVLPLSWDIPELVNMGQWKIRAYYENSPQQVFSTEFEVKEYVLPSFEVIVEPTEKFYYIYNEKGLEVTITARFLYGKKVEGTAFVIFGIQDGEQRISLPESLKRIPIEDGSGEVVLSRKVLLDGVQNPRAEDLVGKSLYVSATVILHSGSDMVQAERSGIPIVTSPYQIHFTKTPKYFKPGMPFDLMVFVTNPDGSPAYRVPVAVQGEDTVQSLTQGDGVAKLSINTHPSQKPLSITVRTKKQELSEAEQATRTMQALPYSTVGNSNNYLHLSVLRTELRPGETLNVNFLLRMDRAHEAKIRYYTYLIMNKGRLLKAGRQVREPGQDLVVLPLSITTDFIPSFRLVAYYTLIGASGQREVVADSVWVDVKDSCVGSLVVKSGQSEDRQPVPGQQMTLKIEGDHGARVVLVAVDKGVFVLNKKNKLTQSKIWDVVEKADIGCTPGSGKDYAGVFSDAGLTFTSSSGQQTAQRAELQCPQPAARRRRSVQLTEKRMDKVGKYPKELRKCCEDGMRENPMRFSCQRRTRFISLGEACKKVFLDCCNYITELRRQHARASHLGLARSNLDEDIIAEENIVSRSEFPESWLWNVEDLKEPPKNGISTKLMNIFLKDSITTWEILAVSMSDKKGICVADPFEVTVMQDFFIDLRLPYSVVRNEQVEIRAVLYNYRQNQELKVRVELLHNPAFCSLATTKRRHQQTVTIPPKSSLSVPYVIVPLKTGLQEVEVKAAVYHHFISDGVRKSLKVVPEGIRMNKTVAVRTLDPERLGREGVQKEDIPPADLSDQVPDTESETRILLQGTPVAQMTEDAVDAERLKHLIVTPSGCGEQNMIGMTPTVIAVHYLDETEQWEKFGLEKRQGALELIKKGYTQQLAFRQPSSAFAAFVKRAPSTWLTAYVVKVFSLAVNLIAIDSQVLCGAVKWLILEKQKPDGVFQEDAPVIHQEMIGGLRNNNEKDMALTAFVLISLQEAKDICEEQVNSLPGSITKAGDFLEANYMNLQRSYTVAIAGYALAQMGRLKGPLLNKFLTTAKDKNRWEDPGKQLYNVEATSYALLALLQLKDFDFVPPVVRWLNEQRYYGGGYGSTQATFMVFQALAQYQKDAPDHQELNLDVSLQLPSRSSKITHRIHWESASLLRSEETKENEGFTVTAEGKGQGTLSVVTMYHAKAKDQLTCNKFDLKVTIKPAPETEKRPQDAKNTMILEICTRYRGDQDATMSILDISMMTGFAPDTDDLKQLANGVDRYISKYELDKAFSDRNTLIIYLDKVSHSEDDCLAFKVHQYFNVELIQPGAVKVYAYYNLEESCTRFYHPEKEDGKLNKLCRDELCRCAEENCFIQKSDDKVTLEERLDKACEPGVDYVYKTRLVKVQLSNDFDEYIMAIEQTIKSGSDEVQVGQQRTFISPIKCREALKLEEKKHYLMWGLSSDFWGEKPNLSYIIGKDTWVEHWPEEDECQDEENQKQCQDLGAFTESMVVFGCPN
Positions of bridges follow the written chain, without caps; N, C: chain ends.
Readout Type: CP hemolysis IC50 (nM)
# unit: nM | format: bare number

Below, each entry is followed by its recorded CP hemolysis IC50 result.
>  <Binder>
Ac-ICVWQDWGEHRCTEGE-NH2 (disulfide 2-12; SMILES CC[C@H](C)[C@H](NC(C)=O)C(=O)N[C@H]1CSSC[C@@H](C(=O)N[C@H](C(=O)N[C@@H](CCC(=O)O)C(=O)NCC(=O)N[C@@H](CCC(=O)O)C(N)=O)[C@@H](C)O)NC(=O)[C@H](CCCNC(=N)N)NC(=O)[C@H](Cc2c[nH]cn2)NC(=O)[C@H](CCC(=O)O)NC(=O)CNC(=O)[C@H](Cc2c[nH]c3ccccc23)NC(=O)[C@H](CC(=O)O)NC(=O)[C@H](CCC(N)=O)NC(=O)[C@H](Cc2c[nH]c3ccccc23)NC(=O)[C@H](C(C)C)NC1=O) [Compound J]

>  <Reading Unit>
nM

>  <CP hemolysis IC50>
240

$$$$
>  <Binder>
Ac-ESSAICVWQDWGEHRCT-NH2 (disulfide 6-16; SMILES CC[C@H](C)[C@H](NC(=O)[C@H](C)NC(=O)[C@H](CO)NC(=O)[C@H](CO)NC(=O)[C@H](CCC(=O)O)NC(C)=O)C(=O)N[C@H]1CSSC[C@@H](C(=O)N[C@H](C(N)=O)[C@@H](C)O)NC(=O)[C@H](CCCNC(=N)N)NC(=O)[C@H](Cc2c[nH]cn2)NC(=O)[C@H](CCC(=O)O)NC(=O)CNC(=O)[C@H](Cc2c[nH]c3ccccc23)NC(=O)[C@H](CC(=O)O)NC(=O)[C@H](CCC(N)=O)NC(=O)[C@H](Cc2c[nH]c3ccccc23)NC(=O)[C@H](C(C)C)NC1=O) [Compound C]

>  <Reading Unit>
nM

>  <CP hemolysis IC50>
300

$$$$

Look up CP hemolysis IC50: Ac-ICIWQDWGEHRCTEGE-NH2 (disulfide 2-12; SMILES CC[C@H](C)[C@H](NC(C)=O)C(=O)N[C@H]1CSSC[C@@H](C(=O)N[C@H](C(=O)N[C@@H](CCC(=O)O)C(=O)NCC(=O)N[C@@H](CCC(=O)O)C(N)=O)[C@@H](C)O)NC(=O)[C@H](CCCNC(=N)N)NC(=O)[C@H](Cc2c[nH]cn2)NC(=O)[C@H](CCC(=O)O)NC(=O)CNC(=O)[C@H](Cc2c[nH]c3ccccc23)NC(=O)[C@H](CC(=O)O)NC(=O)[C@H](CCC(N)=O)NC(=O)[C@H](Cc2c[nH]c3ccccc23)NC(=O)[C@H]([C@@H](C)CC)NC1=O, also called Comp No 24) [Compound 24]
90

Look up CP hemolysis IC50 for this binder: Ac-ICVWQDWGEHRCT-NH2 (disulfide 2-12; SMILES CC[C@H](C)[C@H](NC(C)=O)C(=O)N[C@H]1CSSC[C@@H](C(=O)N[C@H](C(N)=O)[C@@H](C)O)NC(=O)[C@H](CCCNC(=N)N)NC(=O)[C@H](Cc2c[nH]cn2)NC(=O)[C@H](CCC(=O)O)NC(=O)CNC(=O)[C@H](Cc2c[nH]c3ccccc23)NC(=O)[C@H](CC(=O)O)NC(=O)[C@H](CCC(N)=O)NC(=O)[C@H](Cc2c[nH]c3ccccc23)NC(=O)[C@H](C(C)C)NC1=O) [Compound A]
350
